# MEASUREMENT NOTES: A CellTox Green Cytotoxicity Assay to monitor cytotoxicity in HEK293 cells - 40 hour (AID 1224871); also: nearly all actives have a fitted effect of over 45% in size
# CONDITION DETAILS: CellTox Green fluorescence; series mostly up to 76.8 µM
Results filed as inconclusive are left out. Calls of active or inactive are those of the source. Calls follow the shape of the dose curve; as a rule, active = well fitted activation curve with a large enough effect in the repeat runs; inconclusive = weak or mixed curves; inactive = flat fitted curve, though single readings scatter.
Can you answer with just one of these options? Yes = active, No = inactive

[
  {
    "COMPOUND": "CCOC(=O)CC(=O)CCl",
    "CLASS": "Yes"
  },
  {
    "COMPOUND": "CC(O)C#N (centres undefined)",
    "CLASS": "No"
  },
  {
    "COMPOUND": "COC(=O)N(C(=O)N1CO[C@@]2(C(=O)OC)Cc3cc(Cl)ccc3C2=N1)c1ccc(OC(F)(F)F)cc1",
    "CLASS": "No"
  }
]

Moving on to another compound below.
What outcome does the record of this test show for C[C@H]1O[C@@H](O[C@H]2[C@@H](O)C[C@H](O[C@H]3[C@@H](O)C[C@H](O[C@H]4CC[C@@]5(C)[C@H](CC[C@@H]6[C@@H]5CC[C@]5(C)[C@@H](C7=CC(=O)OC7)CC[C@]65O)C4)O[C@@H]3C)O[C@@H]2C)C[C@H](O)[C@@H]1O ?
No

====

# MEASUREMENT NOTES: qHTS assay to identify small molecule antagonists of the estrogen related receptor signaling pathway with the pleiotropic PPARgamma coactivator (PGC) from Tox21 10K library - cell viability counter screen (AID 1224840); also: nearly all actives have a fitted effect of over 40% in size
# CONDITION DETAILS: PGC/ERR reporter cells viability, CellTiter-Fluor, 17.5 h; series mostly up to 92.4 µM
Records with an inconclusive call do not appear. Active and inactive are the calls of the source. Calls come from the whole dose curve; as a rule, active = well fitted cell-killing curve with a large enough effect in the repeat runs (not every such curve was filed as active); inconclusive = weak or mixed curves, or effect the other way; inactive = no such curve, though single readings can be large or run the other way.
Can you answer with just one of these options? 1 (active), 0 (inactive)

[
  {
    "MOLECULE": "COCC(=O)N(c1c(C)cccc1C)[C@H](C)C(=O)OC",
    "CLASS": 0
  },
  {
    "MOLECULE": "Cn1[nH]nnc1=S",
    "CLASS": 0
  },
  {
    "MOLECULE": "c1ccc(OCC2CO2)cc1 (stereo not given)",
    "CLASS": 0
  }
]

What outcome does the record of this test show for BrCC(Br)c1ccccc1 (stereo not given) ?
0

What outcome does the record of this test show for c1ccc2c(c1)OCC(C1=NCCN1)O2 (stereo not given) ?
1

What outcome does the record of this test show for CC(C)Oc1cccc(NC(=O)c2ccccc2C(F)(F)F)c1 ?
0

What outcome does the record of this test show for CC(C)CC(C)N (stereo not given) ?
0

What outcome does the record of this test show for CC(C)(C)C(O)/C(=C\c1ccc(Cl)cc1Cl)n1cncn1 (stereo not given) ?
1

What outcome does the record of this test show for N#CC(Cl)Cl ?
0

What outcome does the record of this test show for CC(C)CC(C)Nc1ccc(Nc2ccccc2)cc1 (stereo not given) ?
1

What outcome does the record of this test show for O=CC(Br)(Br)Br ?
1

What outcome does the record of this test show for N#CNC#N ?
0

What outcome does the record of this test show for N#Cc1ccc(O)cc1 ?
0

What outcome does the record of this test show for CCOC(=O)C1(c2ccccc2)CCN(CCC(C#N)(c2ccccc2)c2ccccc2)CC1 ?
0

What outcome does the record of this test show for CC(C)(C)OO ?
0

What outcome does the record of this test show for Cc1cc(C(F)(C(F)(F)F)C(F)(F)F)ccc1NC(=O)c1cccc(I)c1C(=O)NC(C)(C)CS(C)(=O)=O ?
0

What outcome does the record of this test show for BrC(Br)C(Br)(Br)Br ?
0

What outcome does the record of this test show for CC(=O)[O-].CC(=O)[O-].O.O.[Cd+2] ?
1
